Values from ChEMBL document CHEMBL2331301

Target sequence: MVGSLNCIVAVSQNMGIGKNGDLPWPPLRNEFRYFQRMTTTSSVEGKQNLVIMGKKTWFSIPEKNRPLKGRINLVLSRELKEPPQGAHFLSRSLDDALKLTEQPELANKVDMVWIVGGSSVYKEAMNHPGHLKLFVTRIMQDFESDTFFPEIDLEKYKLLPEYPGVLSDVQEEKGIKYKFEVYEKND
property-label: IC50

1. CCc1nc(N)nc(N)c1C#CC(C)c1cc(OC)cc(-c2cccc3cnccc23)c1 (stereo not drawn): 45 nM
2. CCc1nc(N)nc(N)c1C#CC(C)c1cc(OC)cc(N2CCOCC2)c1 (stereo not drawn): 250 nM
3. CCc1nc(N)nc(N)c1C#CCc1cc(OC)cc(-c2ccc3c(c2)OCCO3)c1: 140 nM
